System: CX-1 Human Colon Carcinoma
Test: Clonogenic dye screening assay, CX-1 cells (IC50)
Format: cell-based
Details: Table XVII; selectivity ratio of IC50 values
recorded.metric: CV/CX
Please state the value as a number alone, without comment.

Just so you know, measured CV/CX for `CCN1/C(=C/C(C)=C/c2[te]c3ccc(C)cc3[n+]2CC)Sc2ccc(Cl)cc21` came out at 10.0

Just so you know, measured CV/CX for `CN1C(=CC=Cc2[te]c3ccccc3[n+]2C)[Te]c2ccccc21` came out at 16.7

Just so you know, measured CV/CX for `CCN1/C(=C/C(=C/c2[te]c3ccc(C)cc3[n+]2CC)c2ccccc2)Sc2ccccc21` came out at 30.0

Just so you know, measured CV/CX for `CN1/C(=C/C=C/c2[te]c3ccc(O)cc3[n+]2C)[Te]c2ccc(O)cc21` came out at 7.6
